- Condition summary: in ethyl acetate, 273.15 K
Measurement label: solubility (mole fraction)
Give bare numbers.

Entry `O=[N+]([O-])c1cccc2c([N+](=O)[O-])cccc12` , solubility (mole fraction) reported as 0.000648

---

- Condition summary: in acetone, 288.15 K
Measurement label: solubility (mole fraction)
Give bare numbers.

Entry `O=[N+]([O-])c1cccc2c([N+](=O)[O-])cccc12` , solubility (mole fraction) reported as 0.00117

---

- Condition summary: in ethylbenzene, 278.15 K
Measurement label: solubility (mole fraction)

Entry `O=[N+]([O-])c1cccc2c([N+](=O)[O-])cccc12` , solubility (mole fraction) reported as 0.000638

---

- Condition summary: in acetonitrile, 305.65 K
Measurement label: solubility (mole fraction)

Entry `O=[N+]([O-])c1cccc2c([N+](=O)[O-])cccc12` , solubility (mole fraction) reported as 0.000997

---

- Condition summary: in ethylbenzene, 295.65 K
Measurement label: solubility (mole fraction)
Give bare numbers.

Entry `O=[N+]([O-])c1cccc2c([N+](=O)[O-])cccc12` , solubility (mole fraction) reported as 0.00129

---

- Condition summary: in acetonitrile, 293.15 K
Measurement label: solubility (mole fraction)
Numbers only.

Entry `O=[N+]([O-])c1cccc2c([N+](=O)[O-])cccc12` , solubility (mole fraction) reported as 0.000585

---

- Condition summary: in ethyl acetate, 295.65 K
Measurement label: solubility (mole fraction)

Entry `O=[N+]([O-])c1cccc2c([N+](=O)[O-])cccc12` , solubility (mole fraction) reported as 0.00148

---

- Condition summary: in n-propanol, 310.65 K
Measurement label: solubility (mole fraction)
Answers are plain numbers.

Entry `O=[N+]([O-])c1cccc2c([N+](=O)[O-])cccc12` , solubility (mole fraction) reported as 0.000163

---

- Condition summary: in n-propanol, 295.65 K
Measurement label: solubility (mole fraction)
Answers are plain numbers.

Entry `O=[N+]([O-])c1cccc2c([N+](=O)[O-])cccc12` , solubility (mole fraction) reported as 7.43e-05

---

- Condition summary: in toluene, 285.65 K
Measurement label: solubility (mole fraction)
Numbers only.

Entry `O=[N+]([O-])c1cccc2c([N+](=O)[O-])cccc12` , solubility (mole fraction) reported as 0.00117

---

- Condition summary: in ethyl acetate, 275.65 K
Measurement label: solubility (mole fraction)
Numbers only.

Entry `O=[N+]([O-])c1cccc2c([N+](=O)[O-])cccc12` , solubility (mole fraction) reported as 0.000699

---

- Condition summary: in toluene, 295.65 K
Measurement label: solubility (mole fraction)

Entry `O=[N+]([O-])c1cccc2c([N+](=O)[O-])cccc12` , solubility (mole fraction) reported as 0.0017

---

- Condition summary: in ethylbenzene, 300.65 K
Measurement label: solubility (mole fraction)
One number for each entry.

Entry `O=[N+]([O-])c1cccc2c([N+](=O)[O-])cccc12` , solubility (mole fraction) reported as 0.00152

---

- Condition summary: in acetonitrile, 273.15 K
Measurement label: solubility (mole fraction)
Give bare numbers.

Entry `O=[N+]([O-])c1cccc2c([N+](=O)[O-])cccc12` , solubility (mole fraction) reported as 0.000236

---

- Condition summary: in acetone, 280.65 K
Measurement label: solubility (mole fraction)

Entry `O=[N+]([O-])c1cccc2c([N+](=O)[O-])cccc12` , solubility (mole fraction) reported as 0.000912
